target of assay: Human recombinant PDE3A (hPDE3A) (Homo sapiens)
Construct: purchased Scottish Biomedical; host or cells: Sf9 insect cells
test description: In vitro assay PDE3A (SPA, 3H-cAMP hydrolysis);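 further: the method names PDE3A and the table heading PDE3B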
Format: biochemical
conditions: hPDE3B pIC50; read-out: pIC50 (converted)
IC50 values, listed per item

Item: `Cc1cc(C(=O)N2CC[C@@H](C)[C@H](c3cc(C(F)F)nc4ncnn34)C2)nc(C)n1` | System: Human recombinant PDE3A (hPDE3A) (Homo sapiens) | IC50: > 10 µM

Item: Cc1ccc(C(=O)N2CCC[C@](C)(c3cc(C(F)F)nc4ncnn34)C2)c(C)n1 (single isomer, unassigned) | System: Human recombinant PDE3A (hPDE3A) (Homo sapiens) | IC50: > 10 µM

Item: `C[C@@H]1CCN(C(=O)c2ccc3cnccc3c2)C[C@H]1c1cc(C(F)F)nc2ncnn12` | System: Human recombinant PDE3A (hPDE3A) (Homo sapiens) | IC50: 0.257 µM

Continuing:
Item: `COc1ccc(C(=O)N2[C@H]3CC[C@H](c4cc(C(F)F)nc5ncnn45)[C@@H]2CC3)cc1Cl` | System: Human recombinant PDE3A (hPDE3A) (Homo sapiens) | IC50: 3.39 µM

----------
target of assay: Human recombinant PDE2A (hPDE2A) (Homo sapiens)
Construct: His tag (inferred from metal chelate purification); made in house; host or cells: Sf9 insect cells (baculovirus)
Sequence (O00408 whole entry): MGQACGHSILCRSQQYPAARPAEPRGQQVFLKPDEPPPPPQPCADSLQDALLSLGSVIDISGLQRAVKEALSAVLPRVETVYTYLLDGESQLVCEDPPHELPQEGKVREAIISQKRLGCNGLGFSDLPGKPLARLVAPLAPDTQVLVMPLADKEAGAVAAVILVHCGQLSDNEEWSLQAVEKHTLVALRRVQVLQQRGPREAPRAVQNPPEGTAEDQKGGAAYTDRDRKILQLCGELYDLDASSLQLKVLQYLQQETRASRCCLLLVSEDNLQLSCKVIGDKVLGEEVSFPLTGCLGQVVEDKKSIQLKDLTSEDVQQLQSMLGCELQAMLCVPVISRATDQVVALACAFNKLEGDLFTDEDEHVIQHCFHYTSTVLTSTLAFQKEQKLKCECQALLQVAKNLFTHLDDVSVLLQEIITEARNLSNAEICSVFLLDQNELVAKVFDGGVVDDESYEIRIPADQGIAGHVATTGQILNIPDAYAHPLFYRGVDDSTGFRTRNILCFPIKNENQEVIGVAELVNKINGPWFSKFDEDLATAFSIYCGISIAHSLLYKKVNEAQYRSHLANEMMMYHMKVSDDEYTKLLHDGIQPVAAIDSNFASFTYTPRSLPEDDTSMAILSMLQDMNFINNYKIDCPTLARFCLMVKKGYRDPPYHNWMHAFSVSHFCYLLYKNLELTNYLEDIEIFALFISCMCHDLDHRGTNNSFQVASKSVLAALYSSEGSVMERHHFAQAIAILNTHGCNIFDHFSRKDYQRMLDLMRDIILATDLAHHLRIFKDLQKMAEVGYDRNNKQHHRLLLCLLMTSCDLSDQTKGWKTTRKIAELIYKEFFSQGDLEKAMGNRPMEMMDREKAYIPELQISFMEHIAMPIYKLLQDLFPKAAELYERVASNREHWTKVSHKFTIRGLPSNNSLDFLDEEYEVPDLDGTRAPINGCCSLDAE
test description: In vitro assay PDE2A (SPA, 3H-cGMP hydrolysis)
Format: biochemical
conditions: read-out: hPDE2A Emax
readout: Emax (%)
# unit: % | format: bare number

Consider the worked cases shown below.
get_value(item= O=C(c1ccc(F)c(C(F)(F)F)c1)N1[C@H]2CC[C@H](c3cc(C(F)F)nc4ncnn34)[C@@H]1CC2 [Compound 357] , readout=Emax) returns 98

get_value(item= Cc1cc([C@@H]2CN(C(=O)c3cc(Cl)ncc3C(F)(F)F)CC[C@H]2C)n2ncnc2n1 [Compound 270] , readout=Emax) returns 100

get_value(item= Cc1cc(C(=O)N2[C@H]3CC[C@@H]2[C@H](c2cc(C(F)F)nc4ncnn24)CC3)c(F)cn1 [Compound 62] , readout=Emax) returns 77

get_value(item= O=C(c1cccc2cccnc12)N1[C@H]2CC[C@H](c3cc(C(F)F)nc4ncnn34)[C@@H]1CC2 [Compound 316] , readout=Emax) returns 94

get_value(item= CCn1ccc2cc(C(=O)N3[C@H]4CC[C@H](c5cc(C(F)F)nc6ncnn56)[C@@H]3CC4)ccc21 [Compound 363] , readout=Emax) returns 99

Continuing:
get_value(item= Cc1cc(C(=O)N2[C@H]3CC[C@H](c4cc(C(F)F)nc5ncnn45)[C@@H]2CC3)cc(OC(F)F)n1 [Compound 293] , readout=Emax) returns 100

get_value(item= O=C(c1ccc2c(c1)OC(F)(F)O2)N1[C@H]2CC[C@H](c3cc(C(F)F)nc4ncnn34)[C@@H]1CC2 [Compound 350] , readout=Emax) returns 100

get_value(item= C[C@@H]1CCN(C(=O)c2ccnc(Cl)c2)C[C@H]1c1cc(C(F)F)nc2ncnn12 [Compound 42] , readout=Emax) returns 100

get_value(item= C[C@@H]1CCN(C(=O)c2ccc3ocnc3c2)C[C@H]1c1cc(C(F)F)nc2ncnn12 [Compound 116] , readout=Emax) returns 101

----------
Emax values, listed per item
target of assay: Human recombinant PDE3A (hPDE3A) (Homo sapiens, UniProt Q14432)
Construct: purchased Scottish Biomedical; host or cells: Sf9 insect cells
Sequence (Q14432 whole entry): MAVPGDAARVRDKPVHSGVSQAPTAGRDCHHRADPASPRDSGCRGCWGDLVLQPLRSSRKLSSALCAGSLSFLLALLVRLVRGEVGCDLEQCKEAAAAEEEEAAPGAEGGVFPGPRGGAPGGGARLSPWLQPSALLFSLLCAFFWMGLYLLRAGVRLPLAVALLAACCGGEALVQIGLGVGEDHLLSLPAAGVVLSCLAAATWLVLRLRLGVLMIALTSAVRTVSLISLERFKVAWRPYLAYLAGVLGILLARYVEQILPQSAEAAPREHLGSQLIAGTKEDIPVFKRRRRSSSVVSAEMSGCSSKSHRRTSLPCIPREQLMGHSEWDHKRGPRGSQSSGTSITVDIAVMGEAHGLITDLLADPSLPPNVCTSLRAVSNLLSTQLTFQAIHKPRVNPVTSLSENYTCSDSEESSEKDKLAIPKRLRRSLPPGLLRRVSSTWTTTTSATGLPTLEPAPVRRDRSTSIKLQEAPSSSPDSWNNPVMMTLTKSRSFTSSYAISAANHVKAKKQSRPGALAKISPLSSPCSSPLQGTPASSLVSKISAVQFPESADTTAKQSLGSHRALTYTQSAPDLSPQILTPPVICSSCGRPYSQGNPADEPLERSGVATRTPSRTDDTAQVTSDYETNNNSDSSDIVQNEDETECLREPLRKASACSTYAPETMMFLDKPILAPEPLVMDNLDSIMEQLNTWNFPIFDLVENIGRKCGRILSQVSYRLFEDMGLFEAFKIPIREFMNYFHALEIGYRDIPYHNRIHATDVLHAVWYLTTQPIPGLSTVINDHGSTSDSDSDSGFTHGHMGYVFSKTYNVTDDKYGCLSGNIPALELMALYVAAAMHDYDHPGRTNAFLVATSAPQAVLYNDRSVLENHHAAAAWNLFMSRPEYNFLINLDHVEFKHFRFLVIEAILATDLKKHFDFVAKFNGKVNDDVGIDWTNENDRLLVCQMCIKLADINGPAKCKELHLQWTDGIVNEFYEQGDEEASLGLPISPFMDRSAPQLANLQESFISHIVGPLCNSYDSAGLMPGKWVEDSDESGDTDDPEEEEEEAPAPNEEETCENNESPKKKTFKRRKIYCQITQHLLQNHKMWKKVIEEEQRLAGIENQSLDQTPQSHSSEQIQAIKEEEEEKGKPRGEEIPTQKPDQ
test description: In vitro assay PDE3A (SPA, 3H-cAMP hydrolysis);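 further: the method names PDE3A and the table heading PDE3B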
Format: biochemical
conditions: read-out: hPDE3B Emax; read-out: Emax
# unit: % | format: bare number

get_value(item= `COc1ccc2c(c1)cc(C(=O)N1CC[C@@H](C)[C@H](c3cc(C(F)F)nc4ncnn34)C1)n2C` , readout=Emax) returns 98

Continuing:
get_value(item= Cc1cc(C)cc(C(=O)N2CCC[C@](C)(c3cc(C(F)F)nc4ncnn34)C2)c1 (single isomer, unassigned) , readout=Emax) returns -1

get_value(item= `C[C@@H]1CCN(C(=O)c2cc(C(C)(C)C)nc(C(C)(C)C)c2)C[C@H]1c1cc(C(F)F)nc2ncnn12` , readout=Emax) returns 74

get_value(item= `C[C@@H]1CCN(C(=O)c2ccc(O)nn2)C[C@H]1c1cc(C(F)F)nc2ncnn12` , readout=Emax) returns 18

----------
target of assay: PDE2A (Rattus norvegicus, UniProt Q01062)
Construct: Twenty μm-thick striatal sections were cut; from tissue; host or cells: rat brain, striatal sections
Sequence (Q01062 1-928): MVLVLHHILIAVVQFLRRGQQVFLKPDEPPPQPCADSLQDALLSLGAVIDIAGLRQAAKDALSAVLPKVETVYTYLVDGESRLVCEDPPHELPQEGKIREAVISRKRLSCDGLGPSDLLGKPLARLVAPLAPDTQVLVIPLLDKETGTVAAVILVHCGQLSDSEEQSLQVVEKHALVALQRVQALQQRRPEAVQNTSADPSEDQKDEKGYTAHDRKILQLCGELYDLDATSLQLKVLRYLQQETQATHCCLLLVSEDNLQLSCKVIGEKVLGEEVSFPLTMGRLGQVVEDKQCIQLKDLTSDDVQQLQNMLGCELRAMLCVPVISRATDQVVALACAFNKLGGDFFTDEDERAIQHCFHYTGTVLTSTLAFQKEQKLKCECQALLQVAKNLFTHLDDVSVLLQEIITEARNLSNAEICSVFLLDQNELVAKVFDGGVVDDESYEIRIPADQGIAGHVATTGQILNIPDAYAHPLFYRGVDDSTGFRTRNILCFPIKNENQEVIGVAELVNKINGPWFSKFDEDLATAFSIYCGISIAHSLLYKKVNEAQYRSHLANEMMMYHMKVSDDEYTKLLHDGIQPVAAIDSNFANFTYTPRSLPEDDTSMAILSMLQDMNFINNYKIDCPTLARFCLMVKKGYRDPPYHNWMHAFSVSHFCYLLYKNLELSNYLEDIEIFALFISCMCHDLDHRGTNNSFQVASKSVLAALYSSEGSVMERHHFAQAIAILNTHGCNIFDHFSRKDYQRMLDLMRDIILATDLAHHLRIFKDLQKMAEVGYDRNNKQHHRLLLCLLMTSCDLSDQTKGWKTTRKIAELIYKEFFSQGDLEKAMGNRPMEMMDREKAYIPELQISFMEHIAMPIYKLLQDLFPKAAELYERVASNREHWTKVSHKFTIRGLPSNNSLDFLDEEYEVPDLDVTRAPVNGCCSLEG
test description: PDE2 occupancy by test compounds, ex-vivo autoradiography with [3H]B-17a
Assay type: in vivo, Male Wistar rats
conditions: po, 10 mg/kg, route PO (oral), percentage receptor occupancy, ex-vivo autoradiography, striatum
readout: receptor occupancy at 10 mg/kg (%)
# unit: % | format: bare number

Consider the worked cases shown below.
get_value(item= `COc1cc(C(=O)N2CC[C@@H](C)[C@H](c3cc(C)nc4ncnn34)C2)c(C(F)(F)F)cn1` , readout=receptor occupancy at 10 mg/kg) returns -13

get_value(item= `C[C@@H]1CCN(C(=O)c2ccn(C)n2)C[C@H]1c1cc(C(F)F)nc2ncnn12` , readout=receptor occupancy at 10 mg/kg) returns -11

get_value(item= `C[C@@H]1CCN(C(=O)c2cc(F)cc(C#N)c2)C[C@H]1c1cc(C(F)F)nc2ncnn12` , readout=receptor occupancy at 10 mg/kg) returns 1

get_value(item= `Cc1cc([C@@H]2CN(C(=O)c3cc(C)c(Cl)c(C)c3)CC[C@H]2C)n2ncnc2n1` , readout=receptor occupancy at 10 mg/kg) returns 43

get_value(item= `C[C@@H]1CCN(C(=O)c2ccc(F)c(C(F)F)c2)C[C@H]1c1cc(C(F)F)nc2ncnn12` , readout=receptor occupancy at 10 mg/kg) returns -18

get_value(item= `Cc1cc(C(=O)N2CC[C@H](C)[C@@H](c3cc(C(F)F)nc4ncnn34)C2)cc(C)n1` , readout=receptor occupancy at 10 mg/kg) returns -8

# input for lookup
get_value(item= `Cc1cc([C@@H]2CN(C(=O)c3cc(Cl)ncc3C(F)(F)F)CC[C@H]2C)n2ncnc2n1` , readout=receptor occupancy at 10 mg/kg) returns 6

----------
readout: melting point (°C)
# unit: °C | format: bare number

Consider the worked cases shown below.
get_value(item= `C[C@@H]1CCN(C(=O)c2ccc3ccccc3c2)C[C@H]1c1cc(C(F)F)nc2ncnn12` , readout=melting point) returns 193.87

get_value(item= `O=C(c1ccc2occc2c1)N1[C@H]2CC[C@H](c3cc(C(F)F)nc4ncnn34)[C@@H]1CC2` , readout=melting point) returns 230.66

get_value(item= `Cc1cc(C)cc(C(=O)N2CC[C@H](C)[C@@H](c3cc(C(F)F)nc4ncnn34)C2)c1` , readout=melting point) returns 203.97

Continuing:
get_value(item= `C[C@@H]1CCN(C(=O)c2cc3ccccc3o2)C[C@H]1c1cc(C(F)F)nc2ncnn12` , readout=melting point) returns 209.73

get_value(item= `C[C@@H]1CCN(C(=O)c2ccc3ncsc3c2)C[C@H]1c1cc(C(F)F)nc2ncnn12` , readout=melting point) returns 178.21

get_value(item= `C[C@@H]1CCN(C(=O)c2ccc3c(ccn3C)c2)C[C@H]1c1cc(C(F)F)nc2ncnn12` , readout=melting point) returns 194.86

get_value(item= `Cc1cc(Cl)cc(C(=O)N2CC[C@@H](C)[C@H](c3cc(C(F)F)nc4ncnn34)C2)c1` , readout=melting point) returns 215.44
